Below, each entry is listed with its recorded pIC50.
Tested on: HCV proteins in Rep5.1 cells (replicon cell line)
Test Description: Inhibitory activity of HCV: cell-based ELISA in replicon cell line Rep5.1 (decrease of HCV proteins)
Parameters: species or system hepatitis C virus
Condition Info: Hepatitis C virus, 72 h, Rep5.1 cells, 72 hours with drug, decrease of HCV proteins measured by HCV antibody; Table 1; read-out: Level (IC50 values classified)
pIC50: −log10 of the molar value.

>  <Compound>
CC1=C(C(=O)OCc2cc(C)cc(C)c2)C(CF)NC(=S)N1 (centres unmarked) [35′]

>  <Assay Result>
> 6.00

$$$$
>  <Compound>
O=C(OCCc1ccsc1)C1=CNC(=S)NC1CF (centres unmarked) [Compound 271]

>  <Assay Result>
5.00 to 6.00

$$$$
>  <Compound>
CC1=C(C(=O)OCC(F)(F)c2ccsc2)CNC(=S)N1 [71′]

>  <Assay Result>
> 6.00

$$$$
>  <Compound>
CC1=C(C(=O)OCc2ccc([N+](=O)[O-])c(C)c2)CNC(=S)N1 [Compound 135]

>  <Assay Result>
> 6.00

$$$$

Data point: CC1=C(C(=O)OCCc2ccsc2)C(c2ccccc2)NC(=S)N1 (centres unmarked) [4′] ; pIC50 = < 4.70

====

Test system: HCV proteins in Rep5.1 cells (replicon cell line)
Test Description: Inhibitory activity of HCV: cell-based ELISA in replicon cell line Rep5.1 (decrease of HCV proteins)
Set-up: species or system hepatitis C virus
Condition Info: Hepatitis C virus, 72 h, Rep5.1 cells, 72 hours with drug, decrease of HCV proteins measured by HCV antibody; Table 1; read-out: Level (IC50 values classified)
pIC50: −log10 of the molar value.
Below, each entry is listed with its recorded pIC50.

>  <Molecule>
CC1=C(C(=O)OCc2ccc(Cl)cc2)C(CF)NC(=S)N1 (centres unmarked)

>  <pIC50>
> 6.00

$$$$

Item: "COc1ccc(CSC(=O)C2=C(C)NC(=S)NC2)cc1" | System: HCV proteins in Rep5.1 cells (replicon cell line) | pIC50: > 6.00

Item: "CC1=C(C(=O)OCc2c(C)nn(-c3ccccc3)c2C)CNC(=S)N1" | System: HCV proteins in Rep5.1 cells (replicon cell line) | pIC50: < 4.70

Item: "CC1=C(C(=O)SCc2ccccc2)CNC(=S)N1" | System: HCV proteins in Rep5.1 cells (replicon cell line) | pIC50: > 6.00

Item: CC1=C(C(=O)OCCc2c(F)c(F)cc(F)c2F)C(CF)NC(=S)N1 (centres unmarked) | System: HCV proteins in Rep5.1 cells (replicon cell line) | pIC50: 5.00 to 6.00

====

Test system: HCV proteins in Rep5.1 cells (replicon cell line)
Test Description: Inhibitory activity of HCV: cell-based ELISA in replicon cell line Rep5.1 (decrease of HCV proteins)
Parameters: species or system hepatitis C virus
Condition Info: Hepatitis C virus, 72 h, Rep5.1 cells, 72 hours with drug, decrease of HCV proteins measured by HCV antibody; Table 1; read-out: Level (IC50 values classified)
pIC50: −log10 of the molar value.
Metric Name: pIC50

Data point: "CC1=C(C(=O)OCCc2cccc([N+](=O)[O-])c2)CNC(=S)N1" ; pIC50 = > 6.00

Data point: "O=C(O)CCCC1=C(C(=O)OCc2ccccc2)CNC(=S)N1" ; pIC50 = < 4.70

====

System: HCV proteins in Rep5.1 cells (replicon cell line)
Test Description: Inhibitory activity of HCV: cell-based ELISA in replicon cell line Rep5.1 (decrease of HCV proteins)
Parameters: species or system hepatitis C virus
Condition Info: Hepatitis C virus, 72 h, Rep5.1 cells, 72 hours with drug, decrease of HCV proteins measured by HCV antibody; Table 1; read-out: Level (IC50 values classified)
Below, each entry is listed with its recorded IC50.

Worked cases, answers included:
>  <Compound>
C=CCN(CC)c1ccc(CCOC(=O)C2=C(C)NC(=S)NC2CO)cc1[N+](=O)[O-] (stereo not shown)

>  <IC50>
< 1000 nM

$$$$
>  <Compound>
CC1=C(C(=O)OCc2cc(Cl)cc(Cl)c2)CNC(=S)N1

>  <IC50>
< 1000 nM

$$$$
>  <Compound>
CC(=O)OCC1NC(=S)NC(C)=C1C(=O)OCCCc1ccsc1 (stereo not shown)

>  <IC50>
> 20000 nM

$$$$
>  <Compound>
CC1=C(C(=O)OCc2ccc(F)cc2F)CNC(=S)N1

>  <IC50>
1000 to 10000 nM

$$$$
>  <Compound>
COc1ccc(CCCOC(=O)C2=C(C)NC(=S)NC2CF)cc1 (stereo not shown)

>  <IC50>
1000 to 10000 nM

$$$$

Item: CC1=C(C(=O)OCCCCc2ccsc2)C(CF)NC(=S)N1 (stereo not shown) | System: HCV proteins in Rep5.1 cells (replicon cell line) | IC50: 1000 to 10000 nM

Item: "COc1ccccc1CCCOC(=O)C1=C(C)NC(=S)NC1" | System: HCV proteins in Rep5.1 cells (replicon cell line) | IC50: < 1000 nM

Item: CCN(c1ccc(CCOC(=O)C2=C(C)NC(=S)NC2CO)cc1[N+](=O)[O-])C1CC1 (stereo not shown) | System: HCV proteins in Rep5.1 cells (replicon cell line) | IC50: < 1000 nM

Item: "CC1=C(C(=O)OCCc2ccccc2)CNC(=S)N1" | System: HCV proteins in Rep5.1 cells (replicon cell line) | IC50: 1000 to 10000 nM

Item: "CC1=C(C(=O)OCCc2ccc(F)cc2)CNC(=S)N1" | System: HCV proteins in Rep5.1 cells (replicon cell line) | IC50: < 1000 nM

====

Test system: HCV proteins in Rep5.1 cells (replicon cell line)
Test Description: Inhibitory activity of HCV: cell-based ELISA in replicon cell line Rep5.1 (decrease of HCV proteins)
Set-up: species or system hepatitis C virus
Condition Info: Hepatitis C virus, 72 h, Rep5.1 cells, 72 hours with drug, decrease of HCV proteins measured by HCV antibody; Table 1; read-out: Level (IC50 values classified)
pIC50: −log10 of the molar value.
Metric Name: pIC50

Worked cases, answers included:
>  <Molecule>
CC1=C(C(=O)OCc2cccc(C(F)(F)F)c2)C(CO)NC(=S)N1 (stereo not shown)

>  <pIC50>
5.00 to 6.00

$$$$
>  <Molecule>
CCOC(=O)OCC1NC(=S)NC(C)=C1C(=O)OCCc1cccc(Cl)c1 (stereo not shown)

>  <pIC50>
5.00 to 6.00

$$$$
>  <Molecule>
CC1=C(C(=O)OCCC2CCCC2)C(CO)NC(=S)N1 (stereo not shown)

>  <pIC50>
5.00 to 6.00

$$$$
>  <Molecule>
CC1=C(C(=O)OC2CCc3ccccc32)CNC(=S)N1 (stereo not shown)

>  <pIC50>
5.00 to 6.00

$$$$
>  <Molecule>
CC1=C(C(=O)OCCCc2ccsc2)C(CF)NC(=S)N1 (stereo not shown)

>  <pIC50>
4.70 to 5.00

$$$$

Data point: "C=CCOC(=O)C1=C(C)NC(=S)NC1" ; pIC50 = < 4.70

Data point: "CC1=C(C(=O)OCc2ccc(F)cc2)CNC(=S)N1" ; pIC50 = > 6.00

Data point: CCCCCC(CC)OC(=O)C1=C(C)NC(=S)NC1 (stereo not shown) ; pIC50 = > 6.00

Data point: CC1=C(C(=O)OCCc2ccccc2Cl)C(CO)NC(=S)N1 (stereo not shown) ; pIC50 = 5.00 to 6.00

Data point: "CC1=C(C(=O)OC2CCCCC2)CNC(=S)N1" ; pIC50 = 5.00 to 6.00

====

Tested on: HCV proteins in Rep5.1 cells (replicon cell line)
Test Description: Inhibitory activity of HCV: cell-based ELISA in replicon cell line Rep5.1 (decrease of HCV proteins)
Parameters: species or system hepatitis C virus
Condition Info: Hepatitis C virus, 72 h, Rep5.1 cells, 72 hours with drug, decrease of HCV proteins measured by HCV antibody; Table 1; read-out: Level (IC50 values classified)
Below, each entry is listed with its recorded IC50.

Worked cases, answers included:
>  <Compound>
CC1=C(C(=O)OCCc2c(F)cccc2Cl)C(CO)NC(=S)N1 (stereo not shown)

>  <IC50>
1000 to 10000 nM

$$$$
>  <Compound>
CC1=C(C(=O)OCCc2c(F)cccc2F)C(CF)NC(=S)N1 (stereo not shown)

>  <IC50>
1000 to 10000 nM

$$$$
>  <Compound>
CC1=C(C(=O)OCCc2cccc(Cl)c2)C(CF)NC(=S)N1 (stereo not shown)

>  <IC50>
< 1000 nM

$$$$
>  <Compound>
CC1=C(C(=O)OC(C)(C)c2ccccc2)CNC(=S)N1

>  <IC50>
> 20000 nM

$$$$
>  <Compound>
CC1=C(C(=O)OCCc2ccc(F)cc2)C(CO)NC(=S)N1 (stereo not shown)

>  <IC50>
1000 to 10000 nM

$$$$
>  <Compound>
CC1=C(C(=O)OCc2cc(Cl)cc(Cl)c2)C(CF)NC(=S)N1 (stereo not shown)

>  <IC50>
< 1000 nM

$$$$
>  <Compound>
COc1ccc(CCOC(=O)C2=C(C)NC(=S)NC2)cc1

>  <IC50>
< 1000 nM

$$$$
>  <Compound>
CC1=C(C(=O)OCCc2ccc(F)cc2)C(CF)NC(=S)N1 (stereo not shown)

>  <IC50>
< 1000 nM

$$$$

Item: CC1=C(C(=O)OCCc2cc(F)cc(F)c2)C(CF)NC(=S)N1 (stereo not shown) | System: HCV proteins in Rep5.1 cells (replicon cell line) | IC50: 1000 to 10000 nM

Item: "CCCCc1ccc(COC(=O)C2=C(C)NC(=S)NC2)cc1" | System: HCV proteins in Rep5.1 cells (replicon cell line) | IC50: < 1000 nM

Source of measurements: patent US20060116390A1
